Recorded values, source patent US4443436A.

Would you mind telling me the reported MIC of each entry?
Test system: Staphylococcus aureus
Test: MIC, broth-dilution microtiter test, Staphylococcus aureus
Assay type: cell-based
Quick reminder: number only, in µg/mL, skip the unit.

State the recorded MIC for this entry: CCC1OC(=O)CC(O)C(C)C(OC2OC(C)C(OC3CC(C)(O)C(O)C(C)O3)C(N(C)C)C2O)C(CCF)CC(C)C(=O)C=CC(C)=CC1COC1OC(C)C(O)C(OC)C1OC (stereo not drawn) [Compound 8, 20-DH-DO-20-Fluoro-tylosin]
1.56

What about this compound? CCC1OC(=O)CC(O)C(C)C(OC2OC(C)C(OC3CC(C)(O)C(O)C(C)O3)C(N(C)C)C2O)C(CCOC(C(F)(F)F)C(F)(F)F)CC(C)C(=O)C=CC(C)=CC1COC1OC(C)C(O)C(OC)C1OC (stereo not drawn) [Compound 19]
12.5

What about this compound? CCC1OC(=O)CC(O)C(C)C(OC2OC(C)C(O)C(N(C)C)C2O)C(CC2OCCO2)CC(C)C(=O)C=CC(C)=CC1COC1OC(C)C(O)C(OC)C1OC (stereo not drawn) [Compound 74]
3.12

What about this compound? CCC1CC(C)C(=O)C=CC(C)=CC(COC2OC(C)C(O)C(O)C2OC)C(CC)OC(=O)CC(O)C(C)C1OC1OC(C)C(O)C(N(C)C)C1O (stereo not drawn) [Compound 60, 20-DH-DO-Lactenocin]
0.78

What about this compound? CCC1OC(=O)CC(O)C(C)C(OC2OC(C)C(OC3CC(C)(O)C(O)C(C)O3)C(N(C)C)C2O)C(CCOc2ccc([N+](=O)[O-])cc2)CC(C)C(=O)C=CC(C)=CC1COC1OC(C)C(O)C(OC)C1OC (stereo not drawn) [Compound 12, 20-DH-20-O-(p-Nitrophenyl)tylosin]
1.56

What about this compound? CCOC(=O)c1ccc(OCCC2CC(C)C(=O)C=CC(C)=CC(COC3OC(C)C(O)C(OC)C3OC)C(CC)OC(=O)CC(O)C(C)C2OC2OC(C)C(O)C(N(C)C)C2O)cc1 (stereo not drawn) [Compound 38]
0.78

What about this compound? CCC1OC(=O)CC(O)C(C)C(OC2OC(C)C(OC3CC(C)(O)C(O)C(C)O3)C(N(C)C)C2O)C(CCCl)CC(C)C(=O)C=CC(C)=CC1COC1OC(C)C(O)C(OC)C1OC (stereo not drawn) [Compound 7, 20-DH-DO-20-Chlorotylosin]
3.12

What about this compound? CCC1OC(=O)CC(O)C(C)C(OC2OC(C)C(O)C(N(C)C)C2O)C(CCOc2ccc(C=O)cc2)CC(C)C(=O)C=CC(C)=CC1COC1OC(C)C(O)C(OC)C1OC (stereo not drawn) [Compound 36, 20-DH-20-O-(p-formylphenyl)desmycosin]
12.5

What about this compound? CCC1OC(=O)CC(O)C(C)C(OC2OC(C)C(OC3CC(C)(O)C(O)C(C)O3)C(N(C)C)C2O)C(CCSc2nnnn2C)CC(C)C(=O)C=CC(C)=CC1COC1OC(C)C(O)C(OC)C1OC (stereo not drawn) [Compound 5]
1.56
